tgt: human PPARγ-LBD (Homo sapiens, UniProt P37231)
Construct: PPARγ-LBD (AAs 203–477 in isoform 1); made in house
Sequence (P37231 203-477 isoform P37231-2): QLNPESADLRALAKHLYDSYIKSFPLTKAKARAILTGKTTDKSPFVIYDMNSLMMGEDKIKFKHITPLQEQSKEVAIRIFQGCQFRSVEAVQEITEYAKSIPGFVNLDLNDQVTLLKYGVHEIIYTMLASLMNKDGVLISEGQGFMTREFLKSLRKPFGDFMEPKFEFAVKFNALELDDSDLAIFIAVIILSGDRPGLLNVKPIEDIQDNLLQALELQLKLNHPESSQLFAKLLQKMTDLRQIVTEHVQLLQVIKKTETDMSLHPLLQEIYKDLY
assay notes: TR-FRET coactivator recruitment assay, PPARγ-LBD
Type: biochemical
cond: PPARγ CBP EC50
pEC50: −log10 of the molar value.

>  <compound>
CC(C)(Oc1ccc(CCNC(=O)c2ccc(Cl)cc2)cc1)C(=O)O [Bezafibrate, bezafibrate]

>  <pEC50>
4.44

$$$$
